target: M-PMV NC-dUTPase (Mason-Pfizer monkey virus, UniProt P07570)
Sequence (P07570 526-759): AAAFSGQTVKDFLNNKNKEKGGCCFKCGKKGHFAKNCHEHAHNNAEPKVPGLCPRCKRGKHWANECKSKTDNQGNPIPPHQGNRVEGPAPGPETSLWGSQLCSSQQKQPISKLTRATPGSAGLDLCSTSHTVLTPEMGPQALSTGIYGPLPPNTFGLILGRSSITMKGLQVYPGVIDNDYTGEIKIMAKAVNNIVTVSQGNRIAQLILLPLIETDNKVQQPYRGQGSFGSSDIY
attribute measured: Kd
Answer format: value, then unit.

Prompt: State the recorded Kd for this entry: O=c1ccn([C@H]2C[C@H](O)[C@@H](COP(=O)(O)NP(=O)(O)OP(=O)(O)O)O2)c(=O)[nH]1
Response: 1.2 µM

// provenance: paper PMC1802613
